Biological target: HNF4alpha2 (COS-7 nuclear extract) (Homo sapiens, UniProt P41235 1-474)
Sequence: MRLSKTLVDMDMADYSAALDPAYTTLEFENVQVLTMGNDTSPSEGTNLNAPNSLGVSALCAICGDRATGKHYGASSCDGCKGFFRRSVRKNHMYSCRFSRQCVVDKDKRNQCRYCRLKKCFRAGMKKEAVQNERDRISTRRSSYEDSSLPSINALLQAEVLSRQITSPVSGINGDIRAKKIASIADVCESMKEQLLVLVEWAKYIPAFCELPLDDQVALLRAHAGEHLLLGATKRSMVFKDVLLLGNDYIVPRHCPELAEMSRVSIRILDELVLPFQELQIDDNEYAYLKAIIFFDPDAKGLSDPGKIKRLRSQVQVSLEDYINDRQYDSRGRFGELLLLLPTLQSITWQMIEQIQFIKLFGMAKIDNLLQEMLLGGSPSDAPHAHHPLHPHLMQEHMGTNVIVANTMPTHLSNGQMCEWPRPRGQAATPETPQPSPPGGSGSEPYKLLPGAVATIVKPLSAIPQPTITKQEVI
Assay: protein-binding microarray; COS-7 nuclear extract on double-stranded Agilent 4x180k PBM; binding buffer, salt, pH and temperature not given in the material; high values mean tight binding
Settings: chain copies: 2; label: 3' end of strand 1 on the slide; dsDNA, one strand shown
Over roughly 18,000 sequences, “log2 normalized intensity” has its median near 0.39; the highest 2% begin near 6.6. The sample as a whole holds a higher share of the highest values than the screen did.
I would appreciate it if you labelled entries Criterion met when binding signal is 3 log2 normalized intensity or higher, otherwise Criterion not met.

item.sequence | category
TCCTCCAAAACCCAGTTCATAGGTCAATTCGCCTAGGGAGATTAGAGTATCGGTCGA | Criterion met
AAAATTAAGGTTCAAAGGGAAAAAATAATCGCCTAGGGAGATTAGAGTATCGGTCGA | Criterion not met

Problem: Record "CATGTTGAGTGGAATATGAGGTCAGGGTTCGCCTAGGGAGATTAGAGTATCGGTCGA" ; criterion: binding signal no lower than 3 log2 normalized intensity. Met?
Result: Criterion not met

Problem: Dear colleague, could you confirm whether "GGCCCAGAGCACAACCTTTGGCCGTGCATGGCCTAGGGAGATTAGAGTATCGGTCGA" has binding signal at or above 3 log2 normalized intensity?
Result: Criterion not met

Problem: Say whether "GGTCAAAGAGCAATCATCAAGGTGGTTTCAGCCTAGGGAGATTAGAGTATCGGTCGA" shows binding signal of 3 log2 normalized intensity or more.
Result: Criterion not met

Problem: Record "TGTCATCTAGACCTGGACTTGAAGCCAGACGCCTAGGGAGATTAGAGTATCGGTCGA" ; criterion: binding signal no lower than 3 log2 normalized intensity. Met?
Result: Criterion not met

Problem: # check: binding signal of "TCTCTCTCTCTTTCTTCCCCCACTCCAAGTGCCTAGGGAGATTAGAGTATCGGTCGA" is greater than or equal to 3 log2 normalized intensity
Result: Criterion met

Problem: Hi team, for "TAACCCTACAGTCCTGCCACATCCCCCACAGCCTAGGGAGATTAGAGTATCGGTCGA" , is the recorded binding signal at or above 3 log2 normalized intensity?
Result: Criterion met

Problem: Item "TCCCTCATTAGTAACTCCAGAGATAAGATAGCCTAGGGAGATTAGAGTATCGGTCGA" with binding signal of 3 log2 normalized intensity or above?
Result: Criterion not met
